- System: HCT-116 colon
- EXPERIMENTAL_DETAILS: NCI tumour cell line growth inhibition, 48 h
Parameter TGI: see the listing below.

Completed entries (count: 4):
[
  {
    "COMPOUND": "O=C(O)c1cc2c(cc1S(=O)(=O)O)C1C(C3C2C2(Cl)C(Cl)=C(Cl)C3(Cl)C2(Cl)Cl)C2(Cl)C(Cl)=C(Cl)C1(Cl)C2(Cl)Cl (stereo not given)",
    "TGI": "32.3 µM"
  },
  {
    "COMPOUND": "COc1cc(/C=C2\\CCc3cc(OC)c(OC)cc3C2=O)cc(OC)c1",
    "TGI": "> 42.3 µM"
  },
  {
    "COMPOUND": "C/C=C/[C@@H]1O[C@H](CC#C[Si](C)(C)C)[C@@]2(C=O)C(C)=CC[C@H](C(C)C)[C@@H]12",
    "TGI": "36.9 µM"
  },
  {
    "COMPOUND": "COC[C@H]1OC(=O)c2coc3c2[C@@]1(C)C1=C(C3=O)[C@@H]2CCC(=O)[C@@]2(C)C[C@H]1OC(C)=O",
    "TGI": "> 100 µM"
  }
]

Switching to the query record.
Challenge: Param request: TGI | system HCT-116 colon | item CNC1NC(=O)c2ccccc2N1Cc1ccc(F)cc1 (stereo not given)
Response given: > 100 µM

----------
- Test system: LOX IMVI melanoma
- EXPERIMENTAL_DETAILS: NCI tumour cell line growth inhibition, 48 h; in the data active = GI50 below about 0.43 µM; inactive = the rest
// classify into label 1 = active, label 0 = inactive

Reference set (5 entries):
[
  {
    "SMI": "C=C(CN1CCN(c2ccccc2F)CC1)c1ccc(C(=O)Nc2ccccc2N)cc1",
    "ASSIGNED_LABEL": "label 0"
  },
  {
    "SMI": "CO/N=C1/NC(=O)/C(=C/c2ccc3ncccc3c2)S1",
    "ASSIGNED_LABEL": "label 0"
  },
  {
    "SMI": "Cc1cc2c(C(N)=O)cccc2n1-c1nc2c(c(NCc3ccccc3)n1)CCCN2",
    "ASSIGNED_LABEL": "label 1"
  },
  {
    "SMI": "Cc1ccc(NS(=O)(=O)c2cc(C)ccc2C)cc1",
    "ASSIGNED_LABEL": "label 0"
  },
  {
    "SMI": "CCCCC(=O)[O-].N.N.N.N.N.[Co+3].[O-][Cl+3]([O-])([O-])[O-]",
    "ASSIGNED_LABEL": "label 0"
  }
]

Pending compound:
Challenge: What call does the record list for CN1CCN(Cc2ccc(NC(=O)c3[nH]ncc3Nc3ncnc4c3CCC4)cc2)CC1 ?
Response given: label 0

----------
Parameter GI50: see the listing below.
- System: SF-295 CNS
- EXPERIMENTAL_DETAILS: NCI tumour cell line growth inhibition, 48 h

[
  {
    "SMI": "Cc1ccc(C(=O)N/N=C/c2cccc(Oc3ccccc3)c2)cn1",
    "GI50": "3.36 µM"
  }
]

Challenge: Consider the compound O=c1[nH]nc2c3c(cccc13)NC(CN1Cc3ccccc3C1)=N2 . State its measured GI50.
Response given: 5.61 µM

Challenge: Consider the compound O=C1C(Cl)=C(N2CCOCC2)C(=O)c2ccccc21 . State its measured GI50.
Response given: 19.2 µM

Challenge: Consider the compound C=C(CN1CCN(c2ccccc2F)CC1)c1ccc(C(=O)Nc2ccccc2N)cc1 . State its measured GI50.
Response given: 2.38 µM

Challenge: Consider the compound Cc1cc(N/N=C/c2nc(-c3ccccc3)oc2C)c2cc(Cl)ccc2n1 . State its measured GI50.
Response given: 1.69 µM

Challenge: Consider the compound CCS(=O)(=O)c1ccc(OC)c(Nc2nccc(N(C)c3ccc4c(C)[nH]nc4c3)n2)c1 . State its measured GI50.
Response given: 4.17 µM

Challenge: Consider the compound O=C(Nc1ccncc1)C(=O)c1cn(S(=O)(=O)c2ccccc2F)c2ccccc12 . State its measured GI50.
Response given: 2.11 µM

Challenge: Consider the compound Cl.Fc1c[c-]c(-c2ccccn2)c(F)c1.[Pt].c1ccc([PH+](CC[PH+](c2ccccc2)c2ccccc2)c2ccccc2)cc1 . State its measured GI50.
Response given: 0.0474 µM

Challenge: Consider the compound Cc1nn2c(/C=C3/C(=O)Nc4ccccc43)c(-c3ccc(Cl)cc3)nc2s1 . State its measured GI50.
Response given: 10.3 µM

Challenge: Consider the compound C[C@@H]1CCN(C(=O)CC#N)C[C@@H]1N(C)c1ncnc2[nH]ccc12 . State its measured GI50.
Response given: > 100 µM

Challenge: Consider the compound O=C(CNC(=O)c1cccc2ccccc12)Nc1ccccc1Oc1ccccc1 . State its measured GI50.
Response given: 0.25 µM
